target: Vasopressin V1a receptor (Homo sapiens); test: V1R activation via calcium rise – fluorescence, CHO-V1R cells, counter-screen for OXTR agonist project, primary screen (AID 2797); conditions: Fluo-8 calcium fluorescence, agonist mode, at 3 µM, stronger effect = higher value, 0% DMSO, 100% 3 nM vasopressin;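 further: signal is peak over basal fluorescence ratio across a 100 second FLIPR read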
The campaign covered roughly 320,000 compounds. About 820 (0.26%) were called active. For the sample, actives were picked, then their nearest neighbours and some compounds at random.
metric: activation (%)
Reply numerically in %, unit not repeated.

Worked cases, activation given:
| molecule | activation / % |
| --- | --- |
| Cc1ccc(C(=O)Nc2sc(Cc3ccc4c(c3)OCO4)c(C)c2C(N)=O)cc1 | -0.01 |
| Cn1nccc1NC(=O)CC(CC(=O)O)c1ccccc1 (centres undefined) | -0.62 |
| O=C(NCCc1nnc2ccc(SCC(=O)N3CCOCC3)nn12)c1ccccc1 | -0.68 |

IN: Item C=CCOc1cccc(C2C(C(=O)c3ccc(C)o3)=C(O)C(=O)N2CCCn2ccnc2)c1 (centres undefined) : provide activation
OUT: -0.49

IN: Item CCO[C@H]1OC(C(=O)N2CCCCCCC2)=C[C@@H](c2ccc(C(F)(F)F)cc2)[C@@H]1CCCO : provide activation
OUT: -0.98

IN: Item NC(N)=Nc1nc2ccc(Br)cc2c(=O)[nH]1 : provide activation
OUT: 0.39

IN: Item CC1CCN(CCC(=O)Nc2ccccc2)CC1 : provide activation
OUT: 0.38

IN: Item CCCc1ccc(OCC(=O)NNC(=S)NC(=O)c2ccco2)cc1 : provide activation
OUT: 19.5

###

activation values for the compounds below.
target: Vasopressin V1a receptor (Homo sapiens); assay: V1R activation via calcium rise – fluorescence, CHO-V1R cells, counter-screen for OXTR agonist project, primary screen (AID 2797); conditions: Fluo-8 calcium fluorescence, agonist mode, at 3 µM, stronger effect = higher value, 0% DMSO, 100% 3 nM vasopressin;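 further: signal is peak over basal fluorescence ratio across a 100 second FLIPR read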
The campaign covered roughly 320,000 compounds. About 820 (0.26%) were called active. What follows is part of a selection rich in actives, with near analogues and random picks from the rest.
Reply numerically in %, unit not repeated.

Worked cases, activation given:
| compound | numeric.result |
| --- | --- |
| CC1CCc2[nH]c3ccc(C(=O)N(C)CC(=O)Nc4cccc(F)c4)cc3c2C1 (stereo not given) | 0.41 |
| O=C(CC1SC(=Nc2ccccc2F)N(CCN2CCOCC2)C1=O)Nc1ccc(F)cc1F (stereo not given) | -0.11 |
| CCN(CC)c1ccc(C(=O)Nn2c(C)nc3ccccc3c2=O)cc1 | 6.78 |
| O=C(NNC(=O)c1ccccc1[N+](=O)[O-])Nc1ccccc1C(F)(F)F | 0.06 |

IN: Item C=CCN(C(=O)Nc1ccc2oc(C)nc2c1)c1ccccc1 : provide activation
OUT: 0.19

###

biological target: Vasopressin V1a receptor (Homo sapiens); experiment: V1R activation via calcium rise – fluorescence, CHO-V1R cells, counter-screen for OXTR agonist project, primary screen (AID 2797); conditions: Fluo-8 calcium fluorescence, agonist mode, at 3 µM, stronger effect = higher value, 0% DMSO, 100% 3 nM vasopressin;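 further: signal is peak over basal fluorescence ratio across a 100 second FLIPR read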
In all, about 320,000 compounds went through this assay and about 820 (0.26%) were called active. The list comes from a sample in which actives are over-represented; it also holds close analogues and randomly drawn compounds.
metric: activation (%)
Reply numerically in %, unit not repeated.

IN: Item CCCC(C)C(=O)Nc1ccc(NC(C)=O)cc1 (stereo unspecified) : provide activation
OUT: 1.31

IN: Item S=C(NCC1COc2ccccc2O1)Nc1ccc(Br)cc1 (stereo unspecified) : provide activation
OUT: 5.7

IN: Item CC(C)(C)S(=O)(=O)c1ccccc1-c1noc(-c2ccccc2)c1C(N)=O : provide activation
OUT: 0.13

IN: Item CC(C)=CCCC(C)CN1CCC(n2nccc2NC(=O)c2ccccc2)CC1 (stereo unspecified) : provide activation
OUT: 0.01

IN: Item CCOC(=O)C1(C)NC(c2ccco2)C2C(=O)N(c3ccccc3)C(=O)C21 (stereo unspecified) : provide activation
OUT: 3.3

IN: Item CCC(C)(C)C1CCC(=NNC(=O)c2ccc(Br)o2)CC1 (stereo unspecified) : provide activation
OUT: 0.08

IN: Item Oc1ccc2ccc3cccc[n+]3c2c1 : provide activation
OUT: 49.5

IN: Item Cc1cc(C(=O)CC#N)c(C)n1-c1c(C)n(C)n(-c2ccccc2)c1=O : provide activation
OUT: 1.66

IN: Item COc1ccc(Cc2nnc(SCC(=O)N(c3ccccc3)C(C)C)n(N)c2=O)cc1 : provide activation
OUT: -1.17

IN: Item CC1(C)OC(=O)C(=CSc2ccc(C(C)(C)C)cc2)C(=O)O1 : provide activation
OUT: 1

IN: Item O=C(NCC(=O)N1CCC2(CC1)NCCc1[nH]cnc12)c1ccc(Br)cc1 : provide activation
OUT: -0.07
